- System: UACC-257
- test.summary: NCI tumour cell line growth inhibition, 48 h
The source made the active and inactive calls. Rule as the data show it: active = GI50 up to about 1.1 µM and inactive = higher.
Outcomes: y (active), n (inactive)

| compound | label |
| --- | --- |
| Cc1cc2cc3c(cc2c(-c2ccc(N)cc2)n1)OCO3 | n |
| CCOc1ccc(N/C(=C(/C(Cl)=C(/Cl)NC(C)(C)C)[N+](=O)[O-])n2nnc3ccccc32)cc1 | n |
| N#CC(C#N)=C/C=C(\Sc1c(Cl)c(Cl)nc(Cl)c1Cl)c1ccc(Cl)cc1 | n |
| COc1ccc(N2C(=O)C3c4[nH]c5ccc([N+](=O)[O-])cc5c4C4CCC(C(C)(C)C)CC4C3C2=O)cc1 (stereo unspecified) | n |
| CCOC(=O)CNC(=O)CNC(=O)CNC(=O)CNNc1c(OCc2ccccc2)c(=O)c1=O | n |
| NC(=O)NC(=O)c1cccc(NC(=O)CCl)c1 | n |
| CC1=NN(c2ccccc2)C2(C1)C(Cl)C(=O)N2c1nc2ccccc2s1 (stereo unspecified) | n |
| C=CCN1C(=O)CC2[C@@H]3CCc4cc(O)ccc4C3CC[C@]2(C)C1=O (stereo partly specified) | n |
| C=CCn1c(-c2ccc([N+](=O)[O-])cc2)cs/c1=N\C(P(=O)(O)O)P(=O)(O)O | n |
| C/C(=N\NC(N)=S)c1ccc2c(c1)Sc1ccccc1O2 | n |
| CC(SC(=S)N1CCOCC1)C(=O)Nc1nnc(-c2ccccc2)o1 (stereo unspecified) | n |
| NNc1nncn1N | n |
| COc1cc2c(cc1OC)C1C3CCCCC3CCN1CC2 (stereo unspecified) | n |
| O=S(=O)(CC(Cl)c1ccccc1)c1nc2ccccc2s1 (stereo unspecified) | n |
| C=C(Cl)[C@@](Cl)(CBr)CC[C@@H](Br)C(C)(C)Cl | y |
| CCCC(=O)OCC1OC2OC(C)(C)OC2C2OC(C)(C)OC12 (stereo unspecified) | n |
| NC1=NC(c2ccc(Cl)cc2)N(c2ccc(S(N)(=O)=O)cc2)C(N)=N1 (stereo unspecified) | n |
| O=C(c1ccccc1)c1nc2ccc(Cl)cc2cc1C(Br)Br | y |
| CCOC(=O)c1c(NS(=O)(=O)c2ccc(C)cc2)sc2c1CCCC2 | n |
| Cc1cc(/N=N/c2ccc(/N=N/c3c(O)c(S(=O)(=O)O)cc4cc(S(=O)(=O)O)ccc34)cc2C)ccc1/N=N/c1ccc2cc(S(=O)(=O)O)cc(S(=O)(=O)O)c2c1 | n |
| O=c1ccn(CC2(CO)CCCC2)c(=O)[nH]1 | n |

====

- Tested on: UO-31
- test.summary: NCI tumour cell line growth inhibition, 48 h
The source made the active and inactive calls. Rule as the data show it: active = GI50 up to about 1.1 µM and inactive = higher.
Classes used: active, inactive

| compound | label |
| --- | --- |
| C(=C\c1nccs1)/c1cccc(/C=C/c2nccs2)n1 | inactive |
| C=CCN1C(=O)CC2[C@@H]3CCc4cc(O)ccc4C3CC[C@]2(C)C1=O (some centres not stated) | inactive |
| O=C(O)c1c(-c2c3ccc(=O)cc-3oc3cc(O)ccc23)cc2ccccc2c1-c1ccccc1 | inactive |
| CC1(C)OC(C(=O)Nc2cc3c4ccccc4ccc3c3ccccc23)C(C(=O)N2CCCCC2)O1 (configuration not stated) | inactive |
| COc1nc(=O)n(C2CC(F)C(CO)O2)cc1C (configuration not stated) | inactive |
| COc1ccccc1/C=C1\CCC(CNc2ccc(Cl)cc2)C1=O (configuration not stated) | inactive |
| COc1cc([C@@H]2c3cc4c(cc3[C@@H](NCc3cccc(F)c3)C3COC(=O)[C@@H]32)OCO4)cc(OC)c1O (some centres not stated) | inactive |
| CC1=C(N2CC2)C(=O)C(CO)=C(N2CC2)C1=O | active |
| NC1=NC(c2ccc(Cl)cc2)N(c2ccc(S(N)(=O)=O)cc2)C(N)=N1 (configuration not stated) | inactive |
| CC(=O)Nc1ncc(Sc2ccccc2C(=O)O)s1 | inactive |
| O=C(CCN1CCOCC1)C(=Cc1ccccc1)C(=O)CCN1CCOCC1 | inactive |
| ClCCN(CC#CCCCC#CCN(CCCl)CCCl)CCCl | inactive |
| Oc1cccc(-c2cn3cc(Cl)ccc3n2)c1 | inactive |
| COC(=O)c1cc2c(c(C(=O)OC)c1)CCC2 | inactive |
| CC(O)(c1ccccc1)c1nccc2ccccc12 (configuration not stated) | inactive |
| CCOC(=O)C(Cc1cn(C(C)=O)c2ccccc12)P(=O)(OCC)OCC (configuration not stated) | inactive |
| O=c1cccc(C2CC(CO)C3CCCCN3C2)[nH]1 (configuration not stated) | inactive |
| COCN1C(=O)[C@@H]2CCCN2C(=O)c2ccc([N+](=O)[O-])cc21 | inactive |
| Nc1c(C(=O)c2ccccc2)[nH]c(NCc2ccccc2)c1C(=S)Nc1ccccc1 | inactive |
| O=C(/C=C/c1cccc([N+](=O)[O-])c1)N1CCN(CCOC(c2ccccc2)c2ccccc2)CC1 | inactive |
| CCOC(=O)CNC(=O)CNC(=O)CNC(=O)CNNc1c(OCc2ccccc2)c(=O)c1=O | inactive |
| NNc1nncn1N | inactive |

====

- System: SNB-19
- test.summary: NCI tumour cell line growth inhibition, 48 h
Calls of active or inactive are those of the source. Cut-off read from the data, not from the text of the source: active = GI50 up to about 1.1 µM and inactive = higher.
This section presents compounds with their documented GI50 values.
parameter: GI50

| compound | observed.result |
| --- | --- |
| CCOC(=O)CNC(=O)CNC(=O)CNC(=O)CNNc1c(OCc2ccccc2)c(=O)c1=O | > 100 µM (inactive) |
| CCOC(=O)C(Sc1ccccc1)c1c(OC)cc(=O)oc1/C=[N+](/[O-])c1ccc(N(C)C)cc1 (stereo not given) | 54.8 µM (inactive) |
| O=c1cccc(C2CC(CO)C3CCCCN3C2)[nH]1 (stereo not given) | > 100 µM (inactive) |
| Cc1ccc(S(=O)(=O)N/N=C/C2(c3ccccc3)c3ccccc3-c3ccccc32)cc1 | 18.7 µM (inactive) |
| CCCC(=O)OCC1OC2OC(C)(C)OC2C2OC(C)(C)OC12 (stereo not given) | > 100 µM (inactive) |
| N#CC12CC(C=O)=C(N)C1(C#N)CC(C=O)=C2N (stereo not given) | 52.8 µM (inactive) |
| COc1cccc(C2CC(C)(O)Oc3cc4c(cc32)OCO4)c1 (stereo not given) | 32.6 µM (inactive) |
| O=C(CCN1CCOCC1)C(=Cc1ccccc1)C(=O)CCN1CCOCC1 | 14.9 µM (inactive) |
| O=C(c1ccccc1)c1nc2ccc(Cl)cc2cc1C(Br)Br | 0.425 µM (active) |
| Nc1c(C(=O)c2ccccc2)[nH]c(NCc2ccccc2)c1C(=S)Nc1ccccc1 | > 100 µM (inactive) |

====

- Test system: MOLT-4
- test.summary: NCI tumour cell line growth inhibition, 48 h
Calls of active or inactive are those of the source. No stated cut-off is given here; in the data, active = GI50 up to about 1.1 µM and inactive = higher. Where a SMILES comes first, the peptide text is derived from it.
Outcome codes: active, inactive

| molecule | label |
| --- | --- |
| CCOC(=O)C(Sc1ccccc1)c1c(OC)cc(=O)oc1/C=[N+](/[O-])c1ccc(N(C)C)cc1 (centres undefined) | inactive |
| CCOc1ccccc1NC(=O)CC1Sc2ccccc2NC1=O (centres undefined) | inactive |
| CC1NC(=O)CNC(=O)CNC(=O)C(Cc2ccc(O)cc2)NC(=O)C(C(C)C)NC(=O)C(C)NC1=O (centres undefined) (cyclo(GGAAVY); configuration not given here) | inactive |
| COC(=O)Cc1c(C2C(CC(=O)OC)c3ccccc3N2C2OC(CO)C(O)C(O)C2O)[nH]c2ccccc12 (centres undefined) | inactive |
| Cn1c2cccc3nnc4cccc(c4c32)n1C | inactive |
| O=C1C2C3C4C1C1C2[C@H](OCc2ccccc2)C3C1[C@H]4OCc1ccccc1 (some centres undefined) | inactive |
| Cc1cc(/N=N/c2ccc(/N=N/c3c(O)c(S(=O)(=O)O)cc4cc(S(=O)(=O)O)ccc34)cc2C)ccc1/N=N/c1ccc2cc(S(=O)(=O)O)cc(S(=O)(=O)O)c2c1 | inactive |
| Cc1ccc2nc(CN(CCO)CCO)cc(=O)n2c1 | inactive |
| O=C1c2ccccc2C(=O)N1CCn1ccc(NC(c2ccccc2)(c2ccccc2)c2ccccc2)nc1=O | inactive |
| CCCCCCCCCCCCCCCCCc1cccc(OCOCCOC)c1C(=O)O | inactive |
| COc1ccc(C(N)=O)c(OC)c1OCc1ccccc1 | inactive |
| CC(C)=NNc1cnnc2ccc([N+](=O)[O-])cc12 | inactive |
| COC(=O)[C@](NC(=O)OCc1ccccc1)([C@@H](C)Sc1ccc(C)cc1)C(F)(F)F | inactive |
| CC(C)(C)c1ccc(S(=O)(=O)N2C(c3cccc(C4CC[C@@H](C(=O)O)N4S(=O)(=O)c4ccc(C(C)(C)C)cc4)c3)CC[C@H]2C(=O)O)cc1 (some centres undefined) | inactive |
| COc1cc(C2SCC(=O)N2c2ccc(-c3ccc(-n4c(-c5ccccc5)nc5ccccc5c4=O)cc3)cc2)ccc1O (centres undefined) | inactive |
| COC(=O)C1C2CC3C(OC(=O)C31)C2OC(=O)[C@](OC)(c1ccccc1)C(F)(F)F (some centres undefined) | inactive |
| CN1CCN(CCCCN2c3ccccc3Sc3cc(N=[N+]=[N-])ccc32)CC1 | inactive |
| CCNCCCCNCCCCNCCCCNCCCCNCC | inactive |
| CC(=O)n1nc(-c2nc3ccccc3nc2Cl)cc1Cl | inactive |
| O=C1C=CC(=O)c2c(O)c(N3CCN(c4ccccn4)CC3)cc(O)c21 | inactive |
| Cc1ccc(S(=O)(=O)NCCCN(CCCNS(=O)(=O)c2ccc(C)cc2)S(=O)(=O)c2ccc(C)cc2)cc1 | inactive |
| COC1(OC)C2(Cl)C(Cl)=C(Cl)C1(Cl)C1c3ccc(C(C)=O)c4cccc(c34)C12 (centres undefined) | inactive |
| COc1cc(-c2nc(SC)nc3c2CCc2ccccc2-3)cc(OC)c1OC | inactive |
| O=C(O)CCC(NC(=O)c1ccccc1)C(=O)O (centres undefined) | inactive |
| N#CNCC(COCc1ccccc1)c1ccccc1 (centres undefined) | inactive |
| O=C(/C=C/c1cccc([N+](=O)[O-])c1)N1CCN(CCOC(c2ccccc2)c2ccccc2)CC1 | inactive |
| [N-]=[N+]=CC(=O)C1CCCN1C(=O)c1ccccc1 (centres undefined) | inactive |
| COc1ccc(CC2C3=C(CCCC3)CCN2C)cc1 (centres undefined) | inactive |
| Sc1nnc(Cc2ccc(Cl)cc2)[nH]1 | inactive |
| CC(=O)O[C@H]1CC[C@@]2(C)C(=CC[C@@H]3[C@@H]2CC[C@]2(C)C(=N/O)/C(=C/c4ccc([N+](=O)[O-])cc4)C[C@@H]32)C1 | inactive |
| CCCC(=O)OCC1OC2OC(C)(C)OC2C2OC(C)(C)OC12 (centres undefined) | inactive |
| Cc1cc(C)nc(NS(=O)(=O)c2ccc(Nc3c4ccccc4nc4c(C(=O)N5CCN(CCO)CC5)ccc(Cl)c34)cc2)n1 | inactive |
| [N-]=[N+]=Nc1c([N+](=O)[O-])c(Cl)nc2ccccc12 | active |
| Cc1ccc2c(c1)SC1=Nc3sc4cc(C)ccc4[n+]3CN12 | active |
| NNC1=NC(=O)NC(=O)C1 | inactive |
| O=C(c1ccccc1)c1nc2ccc(Cl)cc2cc1C(Br)Br | active |
| C[Si](C)(C)[C@@]1([Se]c2ccccc2)CC[C@@H]1C(=O)c1ccccc1 | inactive |
| Cc1c2cccc(Sc3ccccc3)c2c2c3c(cccc13)[S+](c1ccccc1)C2 (centres undefined) | inactive |
| Fc1cccc2nc(-c3ccccc3)cc(OCc3ccccc3)c12 | inactive |
